Listing of recorded Ki by entry.
Experimental target: D(2) dopamine receptor (Homo sapiens, UniProt P14416)
Sequence (P14416 whole entry): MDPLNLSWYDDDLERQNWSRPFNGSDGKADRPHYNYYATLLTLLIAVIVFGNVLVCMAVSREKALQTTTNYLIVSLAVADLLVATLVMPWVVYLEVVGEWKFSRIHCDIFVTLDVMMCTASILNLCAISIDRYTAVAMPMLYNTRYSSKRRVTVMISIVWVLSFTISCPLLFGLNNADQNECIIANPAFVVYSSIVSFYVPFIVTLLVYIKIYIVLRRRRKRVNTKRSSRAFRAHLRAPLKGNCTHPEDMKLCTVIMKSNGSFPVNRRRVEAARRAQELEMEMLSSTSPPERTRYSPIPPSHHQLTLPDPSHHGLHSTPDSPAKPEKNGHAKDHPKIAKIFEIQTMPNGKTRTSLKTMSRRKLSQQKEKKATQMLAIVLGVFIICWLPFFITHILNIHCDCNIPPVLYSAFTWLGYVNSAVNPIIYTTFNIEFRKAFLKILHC
Assay info: Binding affinity at Dopamine receptor D2 expressed in CHO cells by [125I]iodosulpiride displacement.
Format: cell-based
Give the quantity in nM, number only.

- Compound: "O=C(NCCCCN1CC[C@H]2c3ccc(O)cc3CC[C@@H]21)c1ccc(-c2ccccc2)cc1"
  Property label: "Ki"
  Result value: 316
- Compound: "COc1cccc2c1CC[C@H]1[C@H]2CCCN1CCCCNC(=O)c1ccc(-c2ccccc2)cc1 (single isomer, unassigned)"
  Property label: "Ki"
  Result value: 501

Consider the additional compound presented here.
Requested field: Ki. Item: CS(=O)(=O)Oc1cccc2c1CC[C@H]1[C@H]2CCN1CCCCNC(=O)c1ccc(-c2ccccc2)cc1 316

###

Experimental target: D(2) dopamine receptor (Homo sapiens, UniProt P14416)
Assay info: Binding affinity at Dopamine receptor D2 expressed in CHO cells by [125I]iodosulpiride displacement.
Type: cell-based
Listing of recorded Ki by entry.
Give the quantity in nM, number only.

Some compounds with recorded Ki:
- Smiles str: "CS(=O)(=O)Oc1ccc2c(c1)CC[C@H]1[C@H]2CCN1CCCCNC(=O)c1ccc(-c2ccccc2)cc1"
  Units symbol: "nM"
  Result value: 1000
- Smiles str: "O=C(NCCCCN1CCC[C@H]2c3ccc(O)cc3CC[C@@H]21)c1ccc(-c2ccccc2)cc1"
  Units symbol: "nM"
  Result value: 501
- Smiles str: "COc1cccc2c1CC[C@H]1[C@H]2CCN1CCCCNC(=O)c1ccc(-c2ccccc2)cc1"
  Units symbol: "nM"
  Result value: 631
- Smiles str: "O=C(NCCCCN1CC[C@@H]2c3ccccc3CC[C@@H]21)c1ccc(-c2ccccc2)cc1"
  Units symbol: "nM"
  Result value: 501
- Smiles str: "O=C(NCCCCN1CCC[C@@H]2c3ccccc3CC[C@H]21)c1ccc(-c2ccccc2)cc1"
  Units symbol: "nM"
  Result value: 501

Requested field: Ki. Item: O=C(NCCCCN1CC[C@H]2c3ccccc3CC[C@@H]21)c1ccc(-c2ccccc2)cc1 501

Item: COc1cccc2c1CC[C@@H]1[C@@H]2CCCN1CCCCNC(=O)c1ccc(-c2ccccc2)cc1 794

###

Experimental target: D(3) dopamine receptor (Homo sapiens, UniProt P35462)
Sequence (P35462 whole entry): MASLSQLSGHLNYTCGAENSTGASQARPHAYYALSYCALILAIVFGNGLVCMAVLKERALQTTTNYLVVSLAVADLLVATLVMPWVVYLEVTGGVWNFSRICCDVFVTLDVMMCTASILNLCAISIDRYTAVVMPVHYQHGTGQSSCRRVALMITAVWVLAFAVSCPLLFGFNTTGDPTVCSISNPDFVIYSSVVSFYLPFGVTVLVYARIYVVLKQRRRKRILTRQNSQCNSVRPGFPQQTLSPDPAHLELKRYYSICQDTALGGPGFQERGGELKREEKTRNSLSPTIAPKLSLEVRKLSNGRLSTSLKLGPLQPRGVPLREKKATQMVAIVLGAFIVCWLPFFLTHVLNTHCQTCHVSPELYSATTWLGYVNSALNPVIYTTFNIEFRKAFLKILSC
Property label: Ki (nM)
Give the quantity in nM, number only.

Some compounds with recorded Ki:
- Smiles str: "O=C(NCCCCN1CCC[C@@H]2c3ccccc3CC[C@@H]21)c1ccc(-c2ccccc2)cc1"
  Property label: "Ki"
  Units symbol: "nM"
  Result value: 251
- Smiles str: "CS(=O)(=O)Oc1cccc2c1CC[C@H]1[C@H]2CCN1CCCCNC(=O)c1ccc(-c2ccccc2)cc1"
  Property label: "Ki"
  Units symbol: "nM"
  Result value: 5.01
- Smiles str: "O=C(NCCCCN1CCC[C@H]2c3ccc(O)cc3CC[C@@H]21)c1ccc(-c2ccccc2)cc1"
  Property label: "Ki"
  Units symbol: "nM"
  Result value: 7.94

Requested field: Ki. Item: CS(=O)(=O)Oc1ccc2c(c1)CC[C@H]1[C@H]2CCCN1CCCCNC(=O)c1ccc(-c2ccccc2)cc1 200

###

Listing of recorded Ki by entry.
Experimental target: D(3) dopamine receptor (Homo sapiens, UniProt P35462)
Give the quantity in nM, number only.

- Smiles str: "CS(=O)(=O)Oc1cccc2c1CC[C@H]1[C@@H]2CCCN1CCCCNC(=O)c1ccc(-c2ccccc2)cc1"
  Ki, nM: 251
- Smiles str: "O=C(NCCCCN1CC[C@H]2c3cccc(O)c3CC[C@@H]21)c1ccc(-c2ccccc2)cc1"
  Ki, nM: 2
- Smiles str: "COc1cccc2c1CC[C@H]1[C@H]2CCN1CCCCNC(=O)c1ccc(-c2ccccc2)cc1"
  Ki, nM: 15.8
- Smiles str: "CS(=O)(=O)Oc1ccc2c(c1)CC[C@H]1[C@H]2CCN1CCCCNC(=O)c1ccc(-c2ccccc2)cc1"
  Ki, nM: 50.1
- Smiles str: "O=C(NCCCCN1CC[C@H]2c3ccccc3CC[C@@H]21)c1ccc(-c2ccccc2)cc1"
  Ki, nM: 15.8

Consider the additional compound presented here.
Requested field: Ki. Item: CS(=O)(=O)Oc1cccc2c1CC[C@H]1[C@H]2CCCN1CCCCNC(=O)c1ccc(-c2ccccc2)cc1 6.31

###

Experimental target: D(2) dopamine receptor (Homo sapiens, UniProt P14416)
Assay info: Binding affinity at Dopamine receptor D2 expressed in CHO cells by [125I]iodosulpiride displacement.
Format: cell-based
Property label: Ki

Some compounds with recorded Ki:
- Smiles str: "CS(=O)(=O)Oc1cccc2c1CC[C@H]1[C@@H]2CCCN1CCCCNC(=O)c1ccc(-c2ccccc2)cc1"
  Result value: "398 nM"
- Smiles str: "CS(=O)(=O)Oc1cccc2c1CC[C@H]1[C@H]2CCCN1CCCCNC(=O)c1ccc(-c2ccccc2)cc1"
  Result value: "251 nM"
- Smiles str: "CS(=O)(=O)Oc1ccc2c(c1)CC[C@H]1[C@H]2CCCN1CCCCNC(=O)c1ccc(-c2ccccc2)cc1"
  Result value: "2000 nM"

Requested field: Ki. Item: O=C(NCCCCN1CC[C@H]2c3cccc(O)c3CC[C@@H]21)c1ccc(-c2ccccc2)cc1 63.1 nM
